system: T1, human SLC34A2 (human, UniProt O95436 1-690)
T1 construct: whole, on cells; also called human solute carrier 34 A2; NaPi2b
T1 sequence (looked up): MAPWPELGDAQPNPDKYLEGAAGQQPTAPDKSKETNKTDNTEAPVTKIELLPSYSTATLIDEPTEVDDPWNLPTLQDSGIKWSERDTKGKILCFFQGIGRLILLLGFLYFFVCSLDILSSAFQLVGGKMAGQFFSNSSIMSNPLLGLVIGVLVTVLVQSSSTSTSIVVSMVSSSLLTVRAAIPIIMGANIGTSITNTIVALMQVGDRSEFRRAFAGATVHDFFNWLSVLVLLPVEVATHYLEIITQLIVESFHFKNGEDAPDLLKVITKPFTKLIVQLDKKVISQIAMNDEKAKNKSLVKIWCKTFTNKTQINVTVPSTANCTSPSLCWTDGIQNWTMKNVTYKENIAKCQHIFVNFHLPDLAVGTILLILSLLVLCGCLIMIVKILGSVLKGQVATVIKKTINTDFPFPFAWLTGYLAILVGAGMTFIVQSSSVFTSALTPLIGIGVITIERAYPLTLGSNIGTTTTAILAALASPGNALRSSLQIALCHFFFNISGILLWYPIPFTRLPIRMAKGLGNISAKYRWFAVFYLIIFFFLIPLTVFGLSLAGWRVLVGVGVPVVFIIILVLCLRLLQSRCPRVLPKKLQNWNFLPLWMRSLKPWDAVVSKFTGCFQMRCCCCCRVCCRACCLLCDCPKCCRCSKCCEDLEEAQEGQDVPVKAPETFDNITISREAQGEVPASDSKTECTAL
testName: FACS, RMG-1 cells
quantityKind: EC50
In your response, put the unit directly after the numeric value.

Query string: Please look up its EC50: 91C9F1.p1.z7 hIgG1 (antibody, V domains shown, humanized hIgG1) VH: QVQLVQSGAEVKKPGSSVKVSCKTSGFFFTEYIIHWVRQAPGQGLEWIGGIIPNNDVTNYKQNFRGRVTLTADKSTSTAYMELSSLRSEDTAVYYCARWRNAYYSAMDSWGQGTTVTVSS VL: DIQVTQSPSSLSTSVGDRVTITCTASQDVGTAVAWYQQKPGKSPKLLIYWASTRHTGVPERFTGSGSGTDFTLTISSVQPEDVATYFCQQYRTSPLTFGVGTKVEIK
Result string: 2.25 nM
